System: maltase (carbohydrase derived from rabbit small intestine mucous membrane)
Assay: Action to inhibit the hydrolytic activity of homogenate prepared from rabbit small intestine mucous membrane: maltase inhibition
Format: biochemical
Conditions: 25 mg/dl; substrate maltose 20 mM; pH 6.8, 37° C., 15 minutes
Measured Maltase inhibition rate of individual entries
observation_type: Maltase inhibition rate

molecule	observation_type	observed_value
O=CC[C@@H](O)[C@@H](O)[C@H](O)CO	Maltase inhibition rate	11.2%
O=C[C@H](O)[C@@H](O)[C@@H](O)CO	Maltase inhibition rate	28.5%
O=C[C@H](O)[C@@H](O)[C@H](O)CO	Maltase inhibition rate	29.2%
O=C[C@H](O)[C@H](O)[C@H](O)CO	Maltase inhibition rate	13.5%
O=C(CO)[C@@H](O)[C@@H](O)[C@H](O)CO	Maltase inhibition rate	12.5%
C[C@H](O)[C@@H](O)[C@@H](O)[C@H](O)C=O	Maltase inhibition rate	16.4%

----------
Target: sucrase (carbohydrase derived from rabbit small intestine mucous membrane) (Oryctolagus cuniculus, UniProt P07768)
Construct: suspended again in a 10 mM potassium phosphate buffer (pH: 7.0), thereby obtaining a crude enzyme suspension; from tissue; host or cells: rabbit small intestine (title: mucous membrane), homogenate, 60,000×g precipitate
Sequence (P07768 1008-1827 limits assumed): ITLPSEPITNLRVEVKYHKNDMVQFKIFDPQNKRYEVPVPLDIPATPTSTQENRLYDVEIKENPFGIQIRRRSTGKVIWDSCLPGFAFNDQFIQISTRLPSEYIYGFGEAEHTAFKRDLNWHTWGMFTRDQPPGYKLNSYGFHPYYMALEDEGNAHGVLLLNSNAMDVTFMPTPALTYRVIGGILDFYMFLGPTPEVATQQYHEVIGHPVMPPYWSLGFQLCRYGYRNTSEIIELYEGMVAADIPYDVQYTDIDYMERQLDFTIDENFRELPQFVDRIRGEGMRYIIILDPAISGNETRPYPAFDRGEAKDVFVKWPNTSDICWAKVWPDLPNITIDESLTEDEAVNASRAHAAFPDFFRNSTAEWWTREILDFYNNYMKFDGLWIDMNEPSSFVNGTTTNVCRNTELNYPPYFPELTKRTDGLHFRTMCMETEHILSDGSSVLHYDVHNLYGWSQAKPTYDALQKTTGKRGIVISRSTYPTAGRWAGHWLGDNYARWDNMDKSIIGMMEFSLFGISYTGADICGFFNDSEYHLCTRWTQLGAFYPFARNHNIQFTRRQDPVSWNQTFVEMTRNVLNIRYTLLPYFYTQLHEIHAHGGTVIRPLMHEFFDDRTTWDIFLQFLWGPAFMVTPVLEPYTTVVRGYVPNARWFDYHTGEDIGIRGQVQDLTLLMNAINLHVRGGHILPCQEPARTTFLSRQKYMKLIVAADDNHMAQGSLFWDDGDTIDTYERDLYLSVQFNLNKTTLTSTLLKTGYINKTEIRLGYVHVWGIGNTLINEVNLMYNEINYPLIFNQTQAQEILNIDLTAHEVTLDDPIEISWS
Sequence (P07768 2-1007 partner limits assumed): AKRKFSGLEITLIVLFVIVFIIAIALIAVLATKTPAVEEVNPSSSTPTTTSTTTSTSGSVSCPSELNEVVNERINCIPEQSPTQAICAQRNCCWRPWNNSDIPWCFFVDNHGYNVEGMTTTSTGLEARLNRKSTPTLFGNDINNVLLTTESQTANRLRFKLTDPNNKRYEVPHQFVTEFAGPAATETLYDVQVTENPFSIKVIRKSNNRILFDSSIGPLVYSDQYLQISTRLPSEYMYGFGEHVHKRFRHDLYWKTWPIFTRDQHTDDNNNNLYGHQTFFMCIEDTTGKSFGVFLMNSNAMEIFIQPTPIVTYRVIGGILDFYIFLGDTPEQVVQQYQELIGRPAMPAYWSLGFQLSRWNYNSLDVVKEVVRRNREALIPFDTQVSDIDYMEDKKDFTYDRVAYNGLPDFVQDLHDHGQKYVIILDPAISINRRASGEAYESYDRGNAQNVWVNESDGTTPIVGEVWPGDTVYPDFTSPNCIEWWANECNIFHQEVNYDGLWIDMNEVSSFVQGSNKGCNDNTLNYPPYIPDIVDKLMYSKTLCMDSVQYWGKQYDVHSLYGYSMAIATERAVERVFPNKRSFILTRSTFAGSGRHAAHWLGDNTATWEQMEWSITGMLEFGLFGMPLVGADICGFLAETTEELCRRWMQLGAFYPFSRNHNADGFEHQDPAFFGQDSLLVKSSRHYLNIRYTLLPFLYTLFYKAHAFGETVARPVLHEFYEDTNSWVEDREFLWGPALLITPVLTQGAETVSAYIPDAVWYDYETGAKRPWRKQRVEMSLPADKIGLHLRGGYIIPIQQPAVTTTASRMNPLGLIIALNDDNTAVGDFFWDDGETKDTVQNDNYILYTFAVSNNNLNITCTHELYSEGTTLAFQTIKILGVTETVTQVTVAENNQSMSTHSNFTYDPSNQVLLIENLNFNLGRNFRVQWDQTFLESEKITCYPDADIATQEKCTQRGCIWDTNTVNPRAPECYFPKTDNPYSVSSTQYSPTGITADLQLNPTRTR
Experiment: Action to inhibit the hydrolytic activity of homogenate prepared from rabbit small intestine mucous membrane: sucrase inhibition
Assay type: biochemical
Conditions: 0.25 h; 50 mg/dl; substrate sucrose 20 mM; pH 6.8, 37° C., 15 minutes; read-out: Sucrase inhibition rate
observation_type: inhibition at 500 µg/mL (%)

molecule	observation_type	unit_name	observed_value
O=C[C@H](O)[C@@H](O)[C@H](O)CO [D-Xylose, D-xylose]	inhibition at 500 µg/mL	%	35.5
O=C[C@@H](O)[C@H](O)[C@H](O)CO [D-Arabinose, D-arabinose, reference compound]	inhibition at 500 µg/mL	%	4
O=C[C@@H](O)[C@H](O)[C@@H](O)CO [L-Xylose, L-xylose]	inhibition at 500 µg/mL	%	8
